Attribution: PubChem BioAssay AID248

Some molecules, each annotated with its measured T/C.
system: L1210 leukemia ip in BDF1 mice, survival T/C; assay: NCI In Vivo Anticancer Drug Screen. Data for tumor model L1210 Leukemia (intraperitoneal) in B6D2F1 (BDF1) mice; conditions: endpoint: mean survival time; dose: 400.0 mg/kg/injection; schedule: Q04DX003 (ip); vehicle: saline with Tween-80; higher = longer survival
Toxic doses and inconclusive results are not listed.

molecule: O=C(N/N=C/c1ccc(Cl)cc1)c1ccc(Cl)cc1
T/C: 91 % of control

molecule: c1ccc2cc3c(cc2c1)Nc1cc2ccccc2cc1N3
T/C: 103 % of control

molecule: O=c1[nH]c(=O)c2ccccc2c2ccccc12
T/C: 102 % of control

Record `CCCCCOC(=O)CN(CC(=O)OCCCCC)c1ccc(C=O)cc1` ; system L1210 leukemia ip in BDF1 mice, survival T/C; T/C = 92 % of control

Record `C=CCNC(=O)Oc1cccc(NC(=O)OC)c1` ; system L1210 leukemia ip in BDF1 mice, survival T/C; T/C = 105 % of control

Record `S=C(S)Nc1ccc(Cc2ccc(NC(=S)S)cc2)cc1` ; system L1210 leukemia ip in BDF1 mice, survival T/C; T/C = 98 % of control

Record `CC(C)(C)CC(C)(C)c1ccc(OCCOc2ccc(C(=O)Nc3ccc(NC(=O)c4ccc5ccccc5c4O)cc3)cc2)cc1` ; system L1210 leukemia ip in BDF1 mice, survival T/C; T/C = 90 % of control

Record `COC(=O)CCC(=O)N1CCOCC1` ; system L1210 leukemia ip in BDF1 mice, survival T/C; T/C = 88 % of control

Record `BrCC1=CC(c2ccccc2)(c2ccccc2)c2ccccc21` ; system L1210 leukemia ip in BDF1 mice, survival T/C; T/C = 87 % of control

Record `Cc1ccc(C)c(-n2nnc3ccccc3c2=O)c1` ; system L1210 leukemia ip in BDF1 mice, survival T/C; T/C = 96 % of control

Record `COc1ccc(/C(C)=N/N=C(\C)c2ccc(OC)cc2)cc1` ; system L1210 leukemia ip in BDF1 mice, survival T/C; T/C = 91 % of control

Record `CCCCCC/C=C/C(=O)OCC` ; system L1210 leukemia ip in BDF1 mice, survival T/C; T/C = 101 % of control

====

Some compounds, each annotated with its measured T/C.
test system: L1210 leukemia ip in BDF1 mice, survival T/C; assay: NCI In Vivo Anticancer Drug Screen. Data for tumor model L1210 Leukemia (intraperitoneal) in B6D2F1 (BDF1) mice; conditions: endpoint: mean survival time; dose: 150.0 mg/kg/injection; schedule: Q04DX003 (ip); vehicle: saline; higher = longer survival
Inconclusive results and toxic doses are left out.

compound: COC1CCCNC1CC(=O)Cn1cnc2cc3c(cc2c1=O)OCO3 (stereo unspecified)
T/C: 100 % of control
//
compound: CCN(CC)c1ccc(NC(=S)Nc2ccc(N(CC)CC)cc2)cc1
T/C: 103 % of control

Input `NC(=O)c1ccc[n+](Cc2ccccc2)c1` . Output T/C: 95 % of control

Input `S=C(Nc1ccc(Cl)c(Cl)c1)SCc1ccccc1` . Output T/C: 104 % of control

Input O=C(Nc1ccc(S(=O)(=O)Nc2ccc(N=Nc3ccc(S(=O)(=O)Nc4nccs4)cc3)cc2)cc1)C(SC1=NC=NC2=NC=NC21)SC1=NC=NC2=NC=NC21 (stereo unspecified) . Output T/C: 96 % of control

Input `COc1ccc(C(=O)/C=C/c2ccc(C(C)C)cc2)cc1` . Output T/C: 100 % of control
